# Test System: recombinant SARS-CoV-2 Mpro (Severe acute respiratory syndrome coronavirus 2)
# Experiment Description: SARS-CoV-2 Mpro inhibition assay (FRET-based proteolytic activity assay)
# Type: biochemical
Property Name: IC50 (µM)
Please give a number only; it is taken to be in µM.

CC1OC(OC2C(c3c(O)cc(O)c4c(=O)cc(-c5ccc(O)cc5)oc34)OC(CO)C(O)C2O)C(O)C(O)C1O (stereo not shown) [vitexin-2-O-rhamnoside, vitexin-2-O-rhaMnoside] :: 65

In: Please report the recorded IC50 for `O=c1cc(-c2ccc(O)c(-c3c(O)cc(O)c4c(=O)cc(-c5ccc(O)cc5)oc34)c2)oc2cc(O)cc(O)c12` .
Out: 28
